test system: HCT-116; experiment: NCI tumour cell line growth inhibition, 48 h
Calls of active or inactive are those of the source. No stated cut-off is given here; in the data, active = GI50 up to about 1.1 µM and inactive = higher.
QUANTITY: GI50

Specify measured GI50 for N=S(c1ccccc1)c1ccccc1[N+](=O)[O-] (stereo not drawn) .
17.8 µM (inactive)

Specify measured GI50 for COc1cc(C)c2c(c1)CN1CN2Cc2cc(OC)cc(C)c21 .
47.9 µM (inactive)

Specify measured GI50 for CC(=O)OCC1OC(OC2CC3C(C)(C)C(=O)CC[C@]3(C)C3CC[C@]45C[C@]4(CCC5[C@@H](C)CC(O)C(O)C(C)(C)O)[C@]23C)C(O)C(O)C1O (stereo partly drawn) .
7.1 µM (inactive)

Specify measured GI50 for C(=C\c1nccs1)/c1cccc(/C=C/c2nccs2)n1 .
> 50 µM (inactive)

Specify measured GI50 for COC(=O)c1cc2c(c(C(=O)OC)c1)CCC2 .
76.6 µM (inactive)
